Values compiled from ChEMBL document CHEMBL1921670.

inhibition at 10 µM reference
Biological target: CYP2D6 (Homo sapiens)
Sequence (P10635 whole entry): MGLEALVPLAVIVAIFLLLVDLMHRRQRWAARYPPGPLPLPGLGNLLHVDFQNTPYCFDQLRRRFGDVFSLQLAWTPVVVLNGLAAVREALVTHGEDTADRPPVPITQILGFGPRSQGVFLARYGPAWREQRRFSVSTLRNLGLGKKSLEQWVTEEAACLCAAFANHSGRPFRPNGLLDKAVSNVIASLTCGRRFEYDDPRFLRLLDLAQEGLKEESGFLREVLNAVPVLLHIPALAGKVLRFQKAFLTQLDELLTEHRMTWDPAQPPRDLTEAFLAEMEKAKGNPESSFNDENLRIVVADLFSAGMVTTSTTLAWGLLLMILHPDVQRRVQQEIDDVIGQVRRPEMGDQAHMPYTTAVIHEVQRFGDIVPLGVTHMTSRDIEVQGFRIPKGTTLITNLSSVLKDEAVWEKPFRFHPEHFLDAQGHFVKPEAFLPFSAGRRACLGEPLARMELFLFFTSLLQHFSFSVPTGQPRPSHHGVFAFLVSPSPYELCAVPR
Test: Inhibition of CYP2D6 at 10 uM
Assay type: ADME
assayReadout: inhibition at 10 µM (%)

COc1cccc(CN(C)C(=O)c2c[nH]c3cc(-c4cn[nH]c4)ccc23)c1: 50
COc1cccc(CN(C)C(=O)c2cc3ccc(-c4cn[nH]c4)cc3[nH]2)c1: 9
COc1cccc(CNC(=O)c2cn(CCCO)c3cc(-c4cn[nH]c4)ccc23)c1: 32
